# System: Aβ42
# run description: Screening for γ-secretase-modulating activity, Method 2: Aβ42 Alphalisa on SKNBE2 cell supernatant
# Type: cell-based
# measurement context: Homo sapiens, Method 2, Table 3c, SKNBE2 cells carrying APP 695 wild type, overnight incubation
pIC50: −log10 of the molar value.
We use 8 as the dividing line for pIC50: on or above the line is true, below is false.

Please review the following examples before continuing.
| smiles entry | qualitative label |
| --- | --- |
| COCc1cn(-c2ccc(Nc3cccc4c3nc(-c3ccc(F)cc3)n4C)cc2OC)cn1 | false |
| COc1cc(Nc2cc(C)nc3c2nc(-c2ccc(F)cc2)n3C)ccc1-n1cnc(C)n1 | false |
| COc1nc(Nc2cc(C(C)C)nc3c2nc(-c2ccc(F)cc2)n3C)ccc1-n1cnc(C)c1 | true |
| COc1cc(Nc2cccc3c2nc(CC2CCNCC2)n3C)ccc1-n1cnc(C)c1 | false |
| COc1nc(Nc2cc(F)cc3c2nc(-c2ccc(F)cc2)n3C(C)C)ccc1-n1cnc(C)c1 | true |
| COc1cc(Nc2cccc3c2nc(-c2ccc(F)cc2)n3C)ccc1-n1cnc(C)n1 | false |
| COc1nc(Nc2cccc3c2nc(-c2cccc(NC(C)=O)c2)n3C)ccc1-n1cnc(C)c1 | false |
| COc1cc(-c2nc3c(Nc4ccc(-n5cnc(C)n5)c(OC)c4)nccc3n2C)ccc1Cl | false |

In plain terms: is recorded pIC50 at least 8 for `Cc1cn(-c2ccc(Nc3cc(C)nc4c3nc(-c3ccc(F)cc3)n4C)cc2F)cn1` ?
false

In plain terms: is recorded pIC50 at least 8 for `COCCCc1cc(Nc2ccc(-n3cnc(C)n3)c(OC)c2)c2nc(-c3ccc(F)cc3)n(C)c2n1` ?
false

In plain terms: is recorded pIC50 at least 8 for `Cc1cc2c(nc(-c3ccc(F)cc3)n2C)c(Nc2ccc(-n3cc(C)nc3I)c(F)c2)n1` ?
false

In plain terms: is recorded pIC50 at least 8 for `CC(=O)Nc1cccc(-c2nc3c(Nc4ccc(-n5cnc(C)c5)c(F)c4)nc(C)cc3n2C)c1` ?
false
